- Tested on: Saccharomyces cerevisiae
- Method: protein stability index of tFT-peptide fusion (C-terminal peptide) (PSI (0-1 scale)); higher = more stable (slower turnover);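 also: PSI is a weighted mean of sequencing reads over stability bins, variants kept only with over 10 reads, mCherry proximal and sfGFP distal, peptide attached via GGGS linker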
- Measurement parameters: genetic background: das1 deletion; temperature: 30 C
Please mark Condition met if the recorded protein stability index is equal to or greater than 0.4, and Condition not met if it falls below.

>>> group_label("FFLVILSWWVGE")
"Condition not met"
>>> group_label("LRVVLVEWMCVV")
"Condition not met"
>>> group_label("SPCLSWTLVLVL")
"Condition not met"
>>> group_label("LSCCIVLLIIFV")
"Condition not met"
>>> group_label("ACIFDMMWFWLF")
"Condition met"
>>> group_label("VVLWVVCWGCWK")
"Condition not met"
>>> group_label("LLSPFLLMLLFL")
"Condition not met"
>>> group_label("CVFGFACRVLVV")
"Condition not met"
>>> group_label("PTPSRPPHPPLR")
"Condition met"
>>> group_label("VMLFYVGSGVVS")
"Condition met"
>>> group_label("MTLYSFSSALLA")
"Condition not met"
>>> group_label("GLYFFVVRIFKV")
"Condition not met"
>>> group_label("CFFICGVFVFLM")
"Condition not met"
>>> group_label("CFCSFQFVRLWV")
"Condition met"
>>> group_label("FPCRNFMVFFCF")
"Condition met"
>>> group_label("PPSRSPLPPLLH")
"Condition met"
>>> group_label("LFVVFVLLTFFV")
"Condition not met"
>>> group_label("PLATSLIGLFVV")
"Condition met"
>>> group_label("VPGCLGRFLFFL")
"Condition met"
>>> group_label("LHLSSFVILLEL")
"Condition not met"
>>> group_label("SFVFLVRRWLFV")
"Condition met"
>>> group_label("SGRFRAFVLRSM")
"Condition met"
>>> group_label("HPRPRPPPLPPP")
"Condition met"
>>> group_label("PRPETCHAVAVR")
"Condition not met"
>>> group_label("LCSLPIVCCFFL")
"Condition met"
>>> group_label("KVLLYWRHAQRQ")
"Condition met"
>>> group_label("VVFVRLGWMRAC")
"Condition met"
>>> group_label("FIGVLVYICREG")
"Condition not met"
>>> group_label("PLLLFFFPRLLF")
"Condition met"
>>> group_label("APGLLPPCLLVV")
"Condition not met"
>>> group_label("FLSRVVLVVLLV")
"Condition not met"
>>> group_label("PPTPYPRFIFSF")
"Condition met"
>>> group_label("HRFCAPSLSASD")
"Condition met"
>>> group_label("LPALPFPIPTFA")
"Condition not met"
>>> group_label("RGFIFFALWSFC")
"Condition not met"
>>> group_label("GFGDKVPWRWVI")
"Condition met"
>>> group_label("SFCSFVFVTFVL")
"Condition not met"
>>> group_label("PSSPTPPPSSSP")
"Condition met"
>>> group_label("PRPLLSIYLRHA")
"Condition met"
>>> group_label("FFVFPFGLLFLS")
"Condition met"
>>> group_label("FFLLTCFLLPSV")
"Condition not met"
>>> group_label("KIKQIKINNKIN")
"Condition met"
>>> group_label("ILVFHFWPFLVR")
"Condition not met"
>>> group_label("GSLFANYNLKLF")
"Condition met"
>>> group_label("LLFCFSVILFTC")
"Condition not met"
>>> group_label("FLLPWLRPVFFF")
"Condition met"
>>> group_label("LRLEFRTNWFLQ")
"Condition met"
>>> group_label("FFMLWCRVLLRL")
"Condition not met"
>>> group_label("CYKYTYVKNNMI")
"Condition met"
>>> group_label("IWRGGSAVPMIC")
"Condition met"
>>> group_label("LAGLVRFWGCVG")
"Condition met"
>>> group_label("GVSLQLHVAVLI")
"Condition met"
>>> group_label("PLLSATLTRRLA")
"Condition met"
>>> group_label("AFRSPLLMLLVL")
"Condition not met"
>>> group_label("EKHRRYAITKFI")
"Condition met"
>>> group_label("LASSCYRHLLVV")
"Condition not met"
>>> group_label("GRHRRIRYVKTS")
"Condition met"
>>> group_label("PVFVLFFFSSLV")
"Condition not met"
>>> group_label("LSVRLYRTVFLV")
"Condition met"
>>> group_label("ILFWSLLVSTIR")
"Condition not met"
>>> group_label("SGRFRFVLLGLV")
"Condition met"
>>> group_label("LLCLLLVPQPHR")
"Condition met"
>>> group_label("LIEMVTTRYRLC")
"Condition met"
>>> group_label("VFSFGLLFQVCR")
"Condition met"
>>> group_label("VFAWSLYLRWAW")
"Condition not met"
>>> group_label("GDLEFCCLIIVL")
"Condition not met"
>>> group_label("LKTKKKKTNTQK")
"Condition met"
>>> group_label("YRHYGVARKKLA")
"Condition met"
>>> group_label("LVAGFVFIFFYR")
"Condition not met"
>>> group_label("FVVVVVWVSRGL")
"Condition not met"
>>> group_label("KYKLYGIMIIEG")
"Condition not met"
>>> group_label("IYTLIINKSKAQ")
"Condition met"
>>> group_label("WLCWVVWFPGLF")
"Condition not met"
>>> group_label("HFLLAFMLCFGQ")
"Condition not met"
>>> group_label("SVVRCWVLLGVA")
"Condition not met"
>>> group_label("PLLPTPLTAPPP")
"Condition met"
>>> group_label("PLTSPLLFPVFA")
"Condition not met"
>>> group_label("VSLIYKTIKNRV")
"Condition met"
>>> group_label("EGREGGGRGEVL")
"Condition met"

====

Listed here: items and their measured protein stability index.
- Tested on: Saccharomyces cerevisiae
- Method: protein stability index of tFT-peptide fusion (C-terminal peptide) (PSI (0-1 scale)); higher = more stable (slower turnover)
- Measurement parameters: genetic background: wild type; temperature: 30 C
Measurement type: protein stability index

>>> observed("PSPPSPPPPPPT")
0.749
>>> observed("PFARPPPSPSPR")
0.707
>>> observed("PLPSPSLLLHCP")
0.592
>>> observed("PPPLPLPSPPPP")
0.671
>>> observed("LCLTLPSDSSAP")
0.841
>>> observed("IRWCLVSVFYVV")
0.192
>>> observed("GGGLRGVGGLGR")
0.602
>>> observed("AVCWWGSVGGVG")
0.697
>>> observed("RSGRSLVGREGG")
0.703
>>> observed("NGMVDDQSEVNR")
0.682
>>> observed("IGAHTRRRVNGA")
0.675
>>> observed("PSPPVPRPPPSP")
0.647
>>> observed("RAALEAPGCIQV")
0.733
>>> observed("GSDDLVSVSSAE")
0.708
>>> observed("EDKKKKTKANDT")
0.669
>>> observed("AGGQRCNWGNTI")
0.678
>>> observed("GQFFRCWRRRLC")
0.171
>>> observed("LGKSRVHLWTGT")
0.706
>>> observed("RVWTTVFIIRAT")
0.333
>>> observed("RFPSSCAPLSPY")
0.621
>>> observed("VGIQQSVVVRLE")
0.669
>>> observed("VGLLQRSLAFVL")
0.612
>>> observed("SKTIRDTYIFKR")
0.816
>>> observed("KIDQLDHVGLYS")
0.674
>>> observed("PTLGDPSVLLLL")
0.69
>>> observed("PLPIGLRHVKSE")
0.696
>>> observed("TKSWSLNGTYLL")
0.703
>>> observed("AGISSLLVQSVP")
0.679
>>> observed("FSGRYFLLFRFL")
0.104
>>> observed("TSSSDCRSPAPP")
0.744
>>> observed("RGRRRAADRSLR")
0.749
>>> observed("WCGGGGRGGVAG")
0.72
>>> observed("RKNNKKKENKKK")
0.795
>>> observed("LRLEFRTNWFLQ")
0.2
>>> observed("LFAKVVSGYDLG")
0.711
>>> observed("IFFYQLYVDRLC")
0.151
>>> observed("LSLVSGWVIPGV")
0.687
>>> observed("TSRTLKPGIPPA")
0.703
>>> observed("VGGGGERGRGGS")
0.687
>>> observed("LTSSLSLSFPPL")
0.749
>>> observed("VGSSPYTVFVSG")
0.747

====

- Test system: Saccharomyces cerevisiae
- Method: protein stability index of tFT-peptide fusion (C-terminal peptide) (PSI (0-1 scale)); higher = more stable (slower turnover)
- Measurement parameters: genetic background: wild type; temperature: 30 C
Measurement type: protein stability index

>>> observed("PRPFAPPPPPHD")
0.808
>>> observed("QPTGYFKLIIIK")
0.398
>>> observed("TVPRSPPSPPLT")
0.7
>>> observed("PAPPLLPPPSPP")
0.63
>>> observed("FCGGYHATVKMR")
0.68
>>> observed("CPRWHDCLACIE")
0.665
>>> observed("RKIQNASLGRGA")
0.7
>>> observed("TTWSPWLGVAET")
0.752
>>> observed("LPLLLPFRTPDF")
0.693
>>> observed("ITGPLAPYLGGF")
0.688
>>> observed("KIKRTNKNIKKS")
0.672
>>> observed("SWTGDGWMWRRR")
0.658
>>> observed("SGATVGVLCFAS")
0.58
>>> observed("LFITTSLFRPFA")
0.53
>>> observed("SSLLLPALSPSV")
0.647
>>> observed("SSPSSFLTLLFI")
0.621
>>> observed("GKYKKGNSIAIE")
0.598
>>> observed("FRIVLIRASDPS")
0.625
>>> observed("FGSLRLQITVNP")
0.557
>>> observed("SPSHSVSGPLSF")
0.648
>>> observed("SIIYKRKKGRRW")
0.714
>>> observed("LVFHSLCFFPLS")
0.694
>>> observed("PPPLRAFPPPLL")
0.648
>>> observed("LCSCMWISAIAI")
0.445
>>> observed("TRTRARAIQTAT")
0.646
>>> observed("QFTSGCPAYLLK")
0.678
>>> observed("GVVWPLGWVWVE")
0.527
>>> observed("LPRPPPPPALPT")
0.66
>>> observed("FFASAAVHLVTC")
0.453
>>> observed("TSRPLHEQTVSP")
0.677
>>> observed("SPAGGPSGGEGV")
0.674
>>> observed("LYRIETLFMRAQ")
0.383
>>> observed("VGGGRRGGVGEG")
0.652
>>> observed("ASGSSVSFQVSF")
0.65
>>> observed("GAAGASCDCTGG")
0.695
>>> observed("TRGMDYWLFTGD")
0.706
>>> observed("PSYTSYFVGLST")
0.48
>>> observed("PPPVPPLGPSRA")
0.693
>>> observed("GLYFFVVRIFKV")
0.27
>>> observed("PPLLPSPPRPPL")
0.774
>>> observed("ARQHGLELTNPR")
0.678
